Target protein (sequence): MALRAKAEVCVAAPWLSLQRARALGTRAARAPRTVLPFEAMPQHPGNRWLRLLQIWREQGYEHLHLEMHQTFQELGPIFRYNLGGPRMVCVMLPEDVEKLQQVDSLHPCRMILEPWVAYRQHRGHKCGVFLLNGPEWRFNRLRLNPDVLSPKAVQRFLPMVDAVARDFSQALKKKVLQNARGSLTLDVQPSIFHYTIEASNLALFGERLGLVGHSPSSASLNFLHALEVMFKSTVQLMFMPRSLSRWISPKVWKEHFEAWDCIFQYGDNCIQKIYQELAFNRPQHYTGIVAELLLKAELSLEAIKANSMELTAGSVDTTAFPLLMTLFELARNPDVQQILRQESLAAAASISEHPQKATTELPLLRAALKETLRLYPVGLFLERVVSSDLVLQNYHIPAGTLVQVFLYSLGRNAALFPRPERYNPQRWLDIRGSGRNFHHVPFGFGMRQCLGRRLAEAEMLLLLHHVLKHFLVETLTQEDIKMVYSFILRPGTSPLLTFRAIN
Record: compiled IC50 on the protein given by its sequence from multiple reports.
Answers are plain numbers, in nM.

Example compounds with recorded IC50:
Compound	IC50, nM
COc1ccc2cc(-c3cncc(C(C)=O)c3)ccc2c1	2.1
CC(O)(c1cncnc1Nc1ccc(F)cc1)C1CCN(S(C)(=O)=O)CC1 (racemic)	2
COc1ccc2cc(-c3cccnc3)c(C)cc2c1	7
COc1ccc2cc(-c3cncc(CO)c3)ccc2c1	9.1
CC(C)C(=O)N1CCc2cc(-c3cncc4ccccc34)ccc21	152

Turning now to a further record.
Name the recorded IC50 for COc1ccc(Nc2ncncc2C(O)C2CCN(S(C)(=O)=O)CC2)cc1 (racemic) .
14

###

Record: compiled IC50 on UniProt:P19099 from multiple reports.

Example molecules with recorded IC50:
Molecule	IC50
[O-][S+](c1ccc(F)c(Cl)c1)c1c(O)c(-c2cccnc2)cc2ccccc12 (stereo not drawn)	53 nM
O=S(=O)(c1cccc(C(F)(F)F)c1)N1CCCc2cc(-c3cccnc3)ccc21	607 nM
[O-][S+](c1cccc(Cl)c1)c1c(O)c(-c2cccnc2)cc2ccccc12 (stereo not drawn)	60 nM
[O-][S+](c1cc(C(F)(F)F)cc(C(F)(F)F)c1)c1c(O)c(-c2cccnc2)cc2ccccc12 (stereo not drawn)	33 nM
COc1cccc([S+]([O-])c2c(O)c(-c3cccnc3)cc3ccccc23)c1 (stereo not drawn)	27 nM
O=c1c2ccccc2oc2cccc(Cn3ccnc3)c12	114 nM
CS(=O)(=O)N1CCC(C(O)c2cncnc2Nc2cccc(F)c2)CC1 (racemic)	5 nM
CCCCC(O)(c1cncnc1Nc1ccc(F)cc1)C1CCN(S(C)(=O)=O)CC1 (racemic)	48 nM
COc1ccc2cc(-c3cncc(C(C)O)c3)ccc2c1 (stereo not drawn)	0.5 nM
O=c1cc(Cn2ccnc2)c2ccc(OCc3cccc(Cl)c3)cc2o1	101 nM

// batch mode: one IC50 value per listed entry
1. CS(=O)(=O)N1CCC(C(O)c2cncnc2Cc2ccccc2)CC1 (racemic)
2. [O-][S+](c1ccc(Cl)cc1)c1c(O)c(-c2cccnc2)cc2ccccc12 (stereo not drawn)
3. Oc1ccc2cc(-c3ccc(Cc4ccncc4)cc3)ccc2c1
4. CCC(=O)NC1CCCc2c(-c3ccc(Cl)cc3F)cncc21 (racemic)
5. N#CC1=Cc2ccc(-c3cccnc3)cc2CC1
6. O=c1c2ccccc2oc2c([N+](=O)[O-])ccc(Cn3ccnc3)c12
7. COc1ccc2c(c1)CC(C)C(c1cncc3ccccc13)=C2 (stereo not drawn)

1. 83 nM
2. 22 nM
3. 1130 nM
4. 28 nM
5. 1.6 nM
6. 31.1 nM
7. 0.5 nM

###

pIC50: −log10 of the molar value.
Record: compiled pIC50 on Cytochrome P450 11B2, mitochondrial (Homo sapiens, UniProt P19099) from multiple reports.
Categorize each record by its pIC50 using class A: < 7; class B: ≥ 7 and < 8; class C: ≥ 8

Compound	Assigned Class
OC1CCc2cc(-c3cccnc3)ccc2C1 (configuration not stated)	class B

Which bin, given its pIC50, does `COc1cncc(-c2ccc3cc(OC)ccc3c2)c1` occupy?
class C

Which bin, given its pIC50, does `S=C1CCc2cc(-c3cccnc3)cc(Cl)c2N1` occupy?
class C

Which bin, given its pIC50, does `O=S(=O)(c1ccc(F)cc1)N1CCCc2cc(-c3cccnc3)ccc21` occupy?
class A

Which bin, given its pIC50, does `O=[N+]([O-])c1ccc(-c2ccncc2)c(OCCCc2ccccc2)c1` occupy?
class B

Which bin, given its pIC50, does `FC(F)(F)c1ccc(-c2cccnc2)c(OCCc2ccccc2)c1` occupy?
class A

Which bin, given its pIC50, does `N#Cc1ccc2cc(-c3cccnc3)ccc2c1` occupy?
class C

Which bin, given its pIC50, does `c1ccc(CCOc2cccnc2-c2ccncc2)cc1` occupy?
class A

###

Record: compiled IC50 on UniProtKB P19099 from multiple reports.
One number for each entry, in nM.

Example compounds with recorded IC50:
Compound	Assay System	IC50 / nM
CC(=O)Nc1cccc(-c2ccc(Cc3ccncc3)cc2)c1	UniProtKB P19099	567
[O-][S+](c1ccc(F)cc1)c1c(O)c(-c2cccnc2)cc2ccccc12 (configuration not stated)	UniProtKB P19099	33
CS(=O)(=O)N1CCC(C(O)c2cncnc2Nc2ccc(C#N)cc2)CC1 (racemic)	UniProtKB P19099	2
COc1cncc(-c2ccc3c(c2)CCC(=O)C3)c1	UniProtKB P19099	1.8
O=C(Cn1ccnc1)c1ccc(OCc2cccc(OC(F)(F)F)c2)cc1	UniProtKB P19099	497
O=c1cc(Cn2ccnc2)c2ccc(OCCc3ccccc3)cc2o1	UniProtKB P19099	899
CS(=O)(=O)N1CCC(C(O)(c2cncnc2Nc2ccc(F)cc2)C(F)(F)F)CC1 (single isomer, unassigned; isomer 1)	UniProtKB P19099	0.73
O=[N+]([O-])c1ccc(-c2cccnc2)c(OCc2ccccc2)c1	UniProtKB P19099	17

// batch mode: one IC50 value per listed entry
1. COc1cncc(-c2cc3ccc(OC)cc3cc2C)c1
2. Oc1ccc(-c2ccc(Cc3ccncc3)cc2)cc1
3. N#Cc1ccc(Cn2ccnc2)c2c(=O)c3ccccc3oc12
4. O=[N+]([O-])c1ccc(Cc2ccncc2)c(OCCc2ccccc2)c1
5. O=[N+]([O-])c1ccc(-c2cccnc2)c(OCCCc2ccccc2)c1
6. Cc1ccncc1-c1ccc2cc(C#N)ccc2c1
7. O=c1cc(Cn2ccnc2)c2ccc(OCc3cc(F)cc(F)c3)cc2o1
8. O=S(=O)(c1cccc(OC(F)(F)F)c1)N1CCCc2cc(-c3cccnc3)ccc21

[3.8, 341, 19.5, 16, 15, 0.6, 200, 322]

// batch mode: one IC50 value per listed entry
1. Nc1ccc(-c2cccnc2)c(OCc2ccccc2)c1
2. O=c1cc(Cn2ccnc2)c2ccc(OCc3ccc(F)c(F)c3)cc2o1

[260, 100]

Name the recorded IC50 for `Oc1ccc(-c2ccc(Cc3ccncc3)cc2)cc1F` .
210

###

Target: Cytochrome P450 11B2, mitochondrial (Homo sapiens, UniProt P19099)
Sequence (P19099 whole entry): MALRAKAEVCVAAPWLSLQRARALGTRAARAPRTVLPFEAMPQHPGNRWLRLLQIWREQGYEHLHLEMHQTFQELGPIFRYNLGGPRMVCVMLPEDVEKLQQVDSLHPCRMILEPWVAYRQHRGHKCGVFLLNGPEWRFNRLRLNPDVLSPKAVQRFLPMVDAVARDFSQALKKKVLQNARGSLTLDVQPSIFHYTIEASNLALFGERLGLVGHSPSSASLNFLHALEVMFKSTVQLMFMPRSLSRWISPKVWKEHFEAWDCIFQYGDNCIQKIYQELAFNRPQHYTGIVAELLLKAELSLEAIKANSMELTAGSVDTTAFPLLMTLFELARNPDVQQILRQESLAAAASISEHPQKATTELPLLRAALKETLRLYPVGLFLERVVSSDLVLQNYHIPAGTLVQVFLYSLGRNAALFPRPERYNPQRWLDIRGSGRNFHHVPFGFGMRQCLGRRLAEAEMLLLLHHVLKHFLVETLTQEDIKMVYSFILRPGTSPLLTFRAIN
Record: compiled pIC50 on Cytochrome P450 11B2, mitochondrial (Homo sapiens, UniProt P19099) from multiple reports.
One number for each entry, as −log10 of the molar value.

Example molecules with recorded pIC50:
Molecule	Assay System	pIC50
O=c1c2ccccc2oc2c(Br)ccc(Cn3ccnc3)c12	Cytochrome P450 11B2, mitochondrial (Homo sapiens, UniProt P19099)	8.07
O=S(=O)(c1cccs1)N1CCCc2cc(-c3cccnc3)ccc21	Cytochrome P450 11B2, mitochondrial (Homo sapiens, UniProt P19099)	6.59
O=C(Nc1ccc(-c2cccnc2)c(OCc2ccccc2)c1)c1ccc(F)cc1	Cytochrome P450 11B2, mitochondrial (Homo sapiens, UniProt P19099)	6.12
COc1ccc2cc(-c3cncc(CC(=O)O)c3)ccc2c1	Cytochrome P450 11B2, mitochondrial (Homo sapiens, UniProt P19099)	5.92
c1cncc(-c2ccc3c(c2)CCCC3)c1	Cytochrome P450 11B2, mitochondrial (Homo sapiens, UniProt P19099)	7.54

// batch mode: one pIC50 value per listed entry
1. CCCOc1ccc(COc2ccc3c(Cn4ccnc4)cc(=O)oc3c2)cc1
2. COc1ccc2c(c1)CCC(c1ccncc1)=C2
3. OC(c1cncnc1Nc1ccc(F)cc1)C1CCNCC1 (racemic)

1: 7.11; 2: 5.55; 3: 6.52

// batch mode: one pIC50 value per listed entry
1. COc1cccc(COc2ccc3c(Cn4ccnc4)cc(=O)oc3c2)c1
2. COc1cccc(S(=O)(=O)N2CCCc3cc(-c4cccnc4)ccc32)c1
3. CS(=O)(=O)N1CCC(C(O)c2cncnc2Nc2ccc(C(F)(F)F)cc2)CC1 (racemic)

1. 6.90
2. 7.07
3. 8.52

// batch mode: one pIC50 value per listed entry
1. CS(=O)(=O)N1CCC(C(O)c2cncnc2Sc2ccc(F)cc2)CC1 (racemic)
2. Cc1cccc(COc2ccc3c(Cn4ccnc4)cc(=O)oc3c2)c1
3. CS(=O)(=O)N1CCC(CC(O)c2cncnc2Nc2ccc(F)cc2)CC1 (racemic)
4. COc1cccc(S(=O)(=O)N2CCc3cc(-c4cccnc4)ccc32)c1
5. O=c1cc(Cn2ccnc2)c2ccc(OCc3cccc(F)c3)cc2o1
6. O=C1CCc2cc(-c3cncc4ccccc34)ccc2N1
7. O=c1cc(Cn2ccnc2)c2ccc(Oc3ccccc3)cc2o1
8. COC(=O)c1cncc(-c2ccc3cc(OC)ccc3c2)c1

1: 9.40; 2: 6.60; 3: 6.72; 4: 6.60; 5: 6.70; 6: 9.70; 7: 5.66; 8: 9.10

// batch mode: one pIC50 value per listed entry
1. O=c1cc(Cn2ccnc2)c2ccc(OCc3ccc(Cl)cc3)cc2o1
2. Fc1ccc(-c2ccc(Cc3ccncc3)cc2)cc1F

[6.70, 6.56]

// batch mode: one pIC50 value per listed entry
1. N#Cc1cccc([S+]([O-])c2c(O)c(-c3cccnc3)cc3ccccc23)c1 (stereo not drawn)
2. c1csc(-c2ccc(Cc3ccncc3)cc2)c1

7.34
6.10
